Test: inhibition of 3D7 malaria parasite growth – strain 3D7 (AID 2306);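 note: 0% = DMSO wells and 100% = chloroquine plus artemisinin control wells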
Conditions: P. falciparum 3D7 erythrocytic growth, LDH absorbance, 72 h; at 2 µM; stronger effect = higher value
quantity-name: growth inhibition (%)
I only need the number, in %, no unit after it.

Some compounds with known growth inhibition results, for comparison:
| compound | value-units | growth inhibition |
| --- | --- | --- |
| c1cc2c3c(cccc3c1)NC(CCCCCCCCC1=Nc3cccc4cccc(c34)N1)=N2 | % | 93 |
| COc1ccc2nccc([C@@H](O)CN3CCC(NCc4nc5c(C#N)cccc5[nH]4)CC3)c2c1 | % | 96 |

// growth inhibition lookup, compound = "FC(F)(F)c1cccc(CNCC2CCN(Cc3ccc4c(c3)OCO4)CC2)c1" , result: 100

// growth inhibition lookup, compound = "CCCCCCn1c(Sc2ccc(C#N)c([N+](=O)[O-])c2)nnc1-c1ccc(N(C)C)cc1" , result: 92

---

Assay: antimalarial activity against Dd2 strain (AID 2302);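 note: 0% = DMSO untreated growth and 100% = chloroquine plus artemisinin killed control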
Details: P. falciparum Dd2 in RBCs, LDH growth readout, 72 h; at 2 µM; stronger effect = higher value
quantity-name: growth inhibition (%)
I only need the number, in %, no unit after it.

Some compounds with known growth inhibition results, for comparison:
| line-notation | value-units | growth inhibition |
| --- | --- | --- |
| Cn1cncc1CCN(Cc1ccc(-c2ccc(C(F)(F)F)cc2)cc1)C(=O)Cn1c(SCc2cccc(F)c2F)cc(=O)c2ccccc21 | % | 90 |
| COc1ccc(CCNCCCCCCNCCc2ccc(-c3ccccc3)cc2)cc1OC | % | 35 |
| c1cc(OCCN2CCCC2)ccc1CNC1CCN(CC2CCCCC2)CC1 | % | 54 |
| Cc1ccc(C(=O)Nc2cccc(CN3CCCN(Cc4ccc(O)cc4)CC3)c2)cc1 | % | 5 |
| Oc1ccc(CCNc2nc(NCc3ccccc3-c3ccc(F)cc3)nc(N3CCNCC3)n2)cc1 | % | 24 |
| CNc1ccc(CNCc2ccc(-c3ccc(-c4nc5c(C)cccc5[nH]4)s3)cc2)cc1 | % | 94 |
| CN(C)CCNc1cc(-c2ccc3ccccc3c2)nc2ccccc12 | % | 58 |
| COc1ccc(Cn2c(Nc3cccc(C(F)(F)F)c3)nc3cc(C(=O)NCCCN(C)C)ccc32)cc1Cl | % | 3 |
| c1cc(CNCCc2ccncc2)cc(-c2ccc(-c3nc4ccccc4[nH]3)s2)c1 | % | 97 |

--- query ---
// growth inhibition lookup, compound = "COc1csc2cc(Br)ccc12" , result: -5

---

Assay: human hepatoma cell viability loss – ATP luminescence, cytotoxicity control for P. falciparum antimalarial project, primary screen (AID 2303);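 note: 0% = DMSO wells and 100% = digitonin-killed cells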
Conditions: HepG2 viability, 24-48 h, at 10 µM, stronger effect = higher value
Threshold check on inhibition: strictly below 20% is t; on or above 20% is f.

| line-notation | assigned-label |
| --- | --- |
| COc1ccccc1N(C)CCNc1cc(C)nc(Nc2ccc(C)cc2)n1 | t |

I wonder whether "COc1c(C2CCN(CCCCNC(=O)c3ccc(-c4ccc(C#N)cc4)cc3)CC2)cc(Cl)c2c1CCCC2" has inhibition below 20%. Can you tell? f

I wonder whether "CCCCCCCN1CC[C@@H](CCCc2ccnc3ccc(OCCCCNC(N)=O)cc23)[C@@H](CC)C1" has inhibition below 20%. Can you tell? f

I wonder whether "COc1cc(CN2CCC(CO)(Cc3cccc(C(F)(F)F)c3)CC2)c(Cl)cc1O" has inhibition below 20%. Can you tell? t

I wonder whether "CN(C)CCCNCCS(=O)(=O)c1cccc(Nc2ccc(-c3cccc(N(C)C)c3)cn2)c1" has inhibition below 20%. Can you tell? t
